Catalogue of IC50 values
test system: SMN2 CJ mRNA; assay: Gene panel canonical junction qPCR assay, SMN2; assay type: cell-based; conditions: larger gene panel; concentration having 50% response in CJ decrease; read-out: SMN2 IC50 (decrease in CJ mRNA levels)

Examples with their reported IC50 follow.
Compound	Measured
c1cc(-c2cn[nH]c2)c2cnnc(N3CCNCC3)c2c1 [Compound 102]	> 10 µM
COc1cc(N2CCNCC2)c2cccc(-c3cc(F)c4nc(C)cn4c3)c2n1 [Compound 138]	0.1 to 1 µM
Cc1cn2cc(NC(=O)c3cccc4c(N(C)C5CCN(C)CC5)cnnc34)cc(F)c2n1 [Compound 213]	1 to 10 µM
Cc1cn2cc(NC(=O)c3cccc4c(N(C)C5CC(C)(C)NC(C)(C)C5)cnnc34)cc(F)c2n1 [Compound 184]	1 to 10 µM
Cc1cn2nc(-c3cccc4c3CCC(=O)N4C3CCNCC3)cc(C)c2n1 [Compound 185]	> 10 µM

Reported SMN2 CJ mRNA IC50 for item Cc1cn2cc(NC(=O)c3cccc4c(N5CCNCC5)cnnc34)cc(F)c2n1 [Compound 113] was < 0.1 µM
